Values were extracted from the RNAGym collection of RNA variant scans (doi:10.7554/elife.80360).

B1: CPEB3 Ribozyme (parent)
chain: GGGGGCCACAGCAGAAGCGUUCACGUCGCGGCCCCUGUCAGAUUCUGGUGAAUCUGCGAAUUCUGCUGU

- Variants of: B1
- TEST_DESCRIPTION: self-cleavage, relative activity (ratio to wild type); higher = more cleavage; co-transcriptional
QUANTITY_KIND: self-cleavage
Form: value (number only, do not type unit).

A52G C57U = 0.407
C32U G56A = 0.94
C18U U67A = 0.862
A8C C24U = 0.753
C35G A59U = 0.254

Task item: # self-cleavage lookup, item C29U U69C
Reply: 0.834

Task item: Same for U53G C57U
Reply: 0.311

Task item: What do we get for G14A U53C ?
Reply: 0.273

Task item: Same lookup for C35A A60G , please.
Reply: 0.24

Task item: Follow-up entry: G2U U53A
Reply: 0.0959

Task item: How about G2U A51G ?
Reply: 0.127

Task item: G14U G68U , same question.
Reply: 0.816
